Taken from patent US20220315624A1.

system: E. faecium MMX 708 VSE; test: MIC broth microdilution; type: cell-based; conditions: Enterococcus faecium, MMX708VSE; E. faecium MMX 708 VSE; CAMHB; read-out: MIC
property_label: MIC (µg/mL)
Give your result in µg/mL as a bare value.

Check out these entries, answers already filled in.
- record_smiles: "C=C(NC(=O)c1csc(C2=N[C@@H]3c4csc(n4)[C@H]4NC(=O)c5csc(n5)[C@H]([C@](C)(O)[C@@H](C)O)NC(=O)C5CSC(=N5)/C(=C/C)NC(=O)[C@H]([C@@H](C)O)NC(=O)c5csc(n5)[C@]3(CC2)NC(=O)[C@H](C)NC(=O)C(=C)NC(=O)[C@H](C)NC(=O)[C@H]([C@@H](C)CC)N[C@@H]2C=Cc3c([C@H](C)O)cc(nc3[C@H]2O)C(=O)O[C@@H]4C)n1)C(=O)NC(=CNC(=O)c1cccc(/C=N/OCCO)c1)C(N)=O"
  property_label: "MIC"
  numeric_readout: 1
- record_smiles: "C=C(NC(=O)c1csc(C2=N[C@@H]3c4csc(n4)[C@H]4NC(=O)c5csc(n5)[C@H]([C@](C)(O)[C@@H](C)O)NC(=O)C5CSC(=N5)/C(=C/C)NC(=O)[C@H]([C@@H](C)O)NC(=O)c5csc(n5)[C@]3(CC2)NC(=O)[C@H](C)NC(=O)C(=C)NC(=O)[C@H](C)NC(=O)[C@H]([C@@H](C)CC)N[C@@H]2C=Cc3c([C@H](C)O)cc(nc3[C@H]2O)C(=O)O[C@@H]4C)n1)C(=O)NC(=CNC(=O)c1cccc(C(C)=O)c1)C(N)=O"
  property_label: "MIC"
  numeric_readout: 1
- record_smiles: "C=C(NC(=O)c1csc(C2=N[C@@H]3c4csc(n4)[C@H]4NC(=O)c5csc(n5)[C@H]([C@](C)(O)[C@@H](C)O)NC(=O)C5CSC(=N5)/C(=C/C)NC(=O)[C@H]([C@@H](C)O)NC(=O)c5csc(n5)[C@]3(CC2)NC(=O)[C@H](C)NC(=O)C(=C)NC(=O)[C@H](C)NC(=O)[C@H]([C@@H](C)CC)N[C@@H]2C=Cc3c([C@H](C)O)cc(nc3[C@H]2O)C(=O)O[C@@H]4C)n1)C(=O)NC(=CNC(=O)c1ccc(Br)cc1)C(N)=O"
  property_label: "MIC"
  numeric_readout: 0.5

Lab note: next molecule to report on.
Quick one: MIC of `C=C(NC(=O)c1csc(C2=N[C@@H]3c4csc(n4)[C@H]4NC(=O)c5csc(n5)[C@H]([C@](C)(O)[C@@H](C)O)NC(=O)C5CSC(=N5)/C(=C/C)NC(=O)[C@H]([C@@H](C)O)NC(=O)c5csc(n5)[C@]3(CC2)NC(=O)[C@H](C)NC(=O)C(=C)NC(=O)[C@H](C)NC(=O)[C@H]([C@@H](C)CC)N[C@@H]2C=Cc3c([C@H](C)O)cc(nc3[C@H]2O)C(=O)O[C@@H]4C)n1)C(=O)NC(=CNC(=O)COC)C(N)=O` ?
1
